studySystem: IDH1 R132C (Homo sapiens, UniProt O75874, R132C)
Sequence (O75874 whole entry R132C): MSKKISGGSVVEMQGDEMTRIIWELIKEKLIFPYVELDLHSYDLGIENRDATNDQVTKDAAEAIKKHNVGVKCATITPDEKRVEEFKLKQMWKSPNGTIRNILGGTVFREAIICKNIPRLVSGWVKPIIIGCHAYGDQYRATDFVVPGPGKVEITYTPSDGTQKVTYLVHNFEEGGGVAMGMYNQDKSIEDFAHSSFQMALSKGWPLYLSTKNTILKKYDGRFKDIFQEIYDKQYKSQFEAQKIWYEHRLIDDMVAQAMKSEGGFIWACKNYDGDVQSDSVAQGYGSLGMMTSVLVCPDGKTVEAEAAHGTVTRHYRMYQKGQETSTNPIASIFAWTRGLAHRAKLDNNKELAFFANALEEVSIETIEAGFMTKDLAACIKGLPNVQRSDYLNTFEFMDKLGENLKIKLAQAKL
measurementNotes: In vitro NADPH depletion assay for IDH1m R132C inhibitors
conditionsUsed: enzyme, diaphorase/resazurin readout, read-out: IDH R132C IC50
pIC50: −log10 of the molar value.
Would you mind telling me the reported pIC50 of each entry?

Need pIC50, item CC(C)(C)OC(=O)NCC(=O)N(c1cccc(F)c1)C(C(=O)NC1CCC(F)(F)CC1)c1ccccc1Cl (centres unmarked)
6.30 to 7.00

Need pIC50, item O=C(NC1CCCCC1)C(c1ccc(F)cc1F)N(C(=O)Cn1cnc(Cl)c1Cl)c1cccc(F)c1 (centres unmarked)
≥ 7.00

Need pIC50, item C[C@H]1CC[C@@H](C(=O)N(c2cccc(F)c2)[C@@H](C(=O)NC2CC(F)(F)C2)c2ccccc2Cl)N1c1ncccn1
≥ 7.00

Need pIC50, item COC(=O)N1C[C@@H](F)C[C@H]1C(=O)N(c1cccc(F)c1)[C@H](C(=O)NC1CC(F)(F)C1)c1ccccc1Cl
≥ 7.00

Need pIC50, item COC(=O)NCC(=O)N(c1cccc(F)c1)C(C(=O)NC1CC(F)(F)C1)c1c(F)cccc1Cl (centres unmarked)
6.00 to 6.30

Need pIC50, item O=C(NC1CCC(F)(F)CC1)C(c1ccccc1Cl)N(C(=O)Cn1cnnn1)c1cccc(F)c1 (centres unmarked)
6.30 to 7.00

Need pIC50, item COCCO[C@@H]1C[C@@H](C(=O)N(c2cccc(F)c2)[C@H](C(=O)NC2CC(F)(F)C2)c2ccccc2Cl)N(C(=O)OC)C1
≥ 7.00

Need pIC50, item COC(=O)N1[C@H](C(=O)N(c2cccc(F)c2)[C@H](C(=O)NC2CC(F)(F)C2)c2ccccc2Cl)CCC1(C)C (single isomer, unassigned)
6.30 to 7.00

Need pIC50, item COC(=O)N1C[C@H](N)C[C@H]1C(=O)N(c1cccc(F)c1)[C@H](C(=O)NC1CC(F)(F)C1)c1ccccc1Cl
6.00 to 6.30

Need pIC50, item O=C(NC1CC(F)(F)C1)[C@H](c1ccccc1Cl)N(C(=O)[C@@H]1CCN1c1ncccn1)c1cccc(F)c1 (stereo in doubt) [Compound 102]
≥ 7.00

Need pIC50, item COC(=O)N[C@@H](CO)C(=O)N(c1cccc(F)c1)C(C(=O)NC1CCC(F)(F)CC1)c1ccccc1Cl (some centres unmarked)
6.30 to 7.00

Need pIC50, item O=C(NC1CC(F)(F)C1)C(c1ccccc1Cl)N(C(=O)Cn1cncn1)c1cccc(F)c1 (centres unmarked)
5.70 to 6.00

Need pIC50, item COC(=O)N[C@@H](CO)C(=O)N(c1cccc(F)c1)C(C(=O)NC1CC(F)(F)C1)c1ccccc1Cl (some centres unmarked)
6.00 to 6.30

Need pIC50, item C[C@H]1CC[C@@H](C(=O)N(c2cccc(F)c2)[C@@H](C(=O)NC2CCC(F)(F)CC2)c2ccccc2Cl)N1c1ncccn1
≥ 7.00

Need pIC50, item C=CC(=O)Nc1cccc(N(C(=O)Cc2cccnc2)C(C(=O)NC2CC(F)(F)C2)c2ccccc2Cl)c1 (centres unmarked)
6.30 to 7.00

Need pIC50, item COC(=O)N[C@H](C(=O)N(c1cccc(F)c1)C(C(=O)NC1CC(F)(F)C1)c1ccccc1Cl)[C@@H](C)O (some centres unmarked)
6.00 to 6.30

Need pIC50, item COC(=O)NCC(=O)N(c1cccc(F)c1)C(C(=O)NC1CC(F)(F)C1)c1ccccc1Cl (centres unmarked)
6.30 to 7.00

Need pIC50, item COC(=O)N1CCC[C@H]1C(=O)N(c1cccc(F)c1)[C@H](C(=O)NC1CC(F)(F)C1)c1c(Cl)cccc1Cl
6.30 to 7.00

Need pIC50, item COC(=O)NCC(=O)N(c1cccc(F)c1)[C@H](C(=O)N[C@H]1CCC(F)(F)C1)c1ccccc1Cl
6.30 to 7.00

Need pIC50, item COC(=O)NCC(=O)N(c1cccc(F)c1)C(C(=O)NC1CCC(F)(F)CC1)c1ccccc1Cl (centres unmarked)
≥ 7.00

Need pIC50, item O=C(NC1CC(F)(F)C1)[C@H](c1ccccc1Cl)N(C(=O)[C@@H]1C[C@@H](O)CN1c1ncccn1)c1cccc(F)c1
≥ 7.00

Need pIC50, item O=C(NC1CC(F)(F)C1)C(c1ccccc1Cl)N(C(=O)Cn1ccnc1CO)c1cccc(F)c1 (centres unmarked)
6.00 to 6.30

Need pIC50, item COC(=O)NCC(=O)N(c1cccc(F)c1)C(C(=O)NC1CC(F)(F)C1)c1c(F)cccc1F (centres unmarked)
5.70 to 6.00

Need pIC50, item CC(C)OC(=O)NCC(=O)N(c1cccc(F)c1)C(C(=O)NC1CC(F)(F)C1)c1ccccc1Cl (centres unmarked)
6.30 to 7.00

Need pIC50, item COC(=O)NCC(=O)N(c1cccc(F)c1)[C@H](C(=O)N[C@@H]1CCCC(F)(F)C1)c1ccccc1Cl (single isomer, unassigned)
6.30 to 7.00

Need pIC50, item C[C@H]1CC[C@@H](C(=O)N(c2cccc(F)c2)[C@H](C(=O)NC2CCC(F)(F)CC2)c2ccccc2Cl)N1c1ncccn1
≥ 7.00
